Exercise: for every item that follows, state its recorded pIC50.
Test system: Kasumi 1
Assay: Cytotoxicity against human Kasumi-1 cells after 72 hrs by alamar blue assay
Assay type: functional, cell-based
Details: Homo sapiens, Kasumi 1, 72 h; read-out: IC50
One number for each entry, as −log10 of the molar value.

Before answering, review these 4 worked examples.
Please indicate pIC50 recorded for Cc1nc(N2CCN(C)CC2)nc(C)c1Sc1nccc(NC(=O)c2ccco2)n1
4.52

Return the recorded pIC50 value; entry: CN1CCN(c2ncc(Sc3cccc(NC(=O)CN)c3)c(OCc3ccccc3)n2)CC1
5.64

Give the reported value of pIC50 for this record: CC(N)C(=O)Nc1cccc(Sc2cnc(N3CCN(C)CC3)nc2OCc2ccccc2)c1 (stereo not given)
5.32

Please look at this molecule and report its pIC50: Cc1nc(N2CCN(C)CC2)nc(C)c1Sc1nccc(NC(=O)C2CC2)n1
4.22

Give pIC50 for each of the items listed below.
1. COc1nc(N2CCN(C)CC2)ncc1Sc1cccc(NC(=O)CN)c1
2. CN1CCN(c2ncc(Sc3cccc(NC(=O)c4ccccc4)c3)c(OCc3ccccc3)n2)CC1
3. COc1nc(N2CCN(C)CC2)ccc1Sc1cccc(NC(=O)C2CC2)c1
4. CN1CCN(c2ncc(Sc3cccc(NC(=O)CN)c3)c(OCc3ccncc3)n2)CC1

1: 4.60; 2: 5.51; 3: 4.44; 4: 4.97

Parameter requested: pIC50. Apply to each item below.
1. CN1CCN(c2ncc(Sc3cccc(NC(=O)CN)c3)c(-c3ccccc3)n2)CC1
2. COc1nc(N2CCN(C)CC2)nc(OC)c1Sc1cccc(NC(=O)CN)c1

4.68
4.65
